# subjectOfTest: Cytochrome P450 2C9 (Homo sapiens) (UniProt P11712)
# Sequence (P11712 whole entry, looked up): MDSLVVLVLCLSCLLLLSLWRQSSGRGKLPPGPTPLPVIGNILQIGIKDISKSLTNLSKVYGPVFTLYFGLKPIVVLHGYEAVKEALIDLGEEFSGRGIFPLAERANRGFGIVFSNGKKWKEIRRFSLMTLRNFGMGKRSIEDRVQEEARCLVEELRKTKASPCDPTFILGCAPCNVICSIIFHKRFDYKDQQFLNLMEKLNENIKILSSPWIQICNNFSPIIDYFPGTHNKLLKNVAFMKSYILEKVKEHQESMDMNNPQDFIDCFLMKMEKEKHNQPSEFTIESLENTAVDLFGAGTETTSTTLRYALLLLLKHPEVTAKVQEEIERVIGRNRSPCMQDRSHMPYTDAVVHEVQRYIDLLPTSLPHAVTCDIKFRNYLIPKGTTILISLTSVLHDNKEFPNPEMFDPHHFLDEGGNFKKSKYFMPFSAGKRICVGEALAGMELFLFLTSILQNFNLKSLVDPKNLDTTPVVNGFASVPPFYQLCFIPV
# experimentNotes: Cytochrome panel assay with activity outcomes
# measurementConditions: recombinant CYP, pro-luciferin dealkylation, luminescence, p450-cyp2c9; series mostly up to 57.1 µM
Among all 16,000 compounds or so, about 4,000 (25%) were called active. Another 26% or so got no clear call; they are omitted. Only a sample is shown.
assayReadout: AC50

Consider the following illustrative entries.
compound | result
COc1cccc(CNCCNC(=O)c2nonc2N)c1 | inactive
Cn1c(/C=N/NC(=O)c2ccccc2Br)nc2ccccc21 | 2 µM (active)
COC(=O)CN(c1ccc(OC)cc1)S(=O)(=O)c1c(C)noc1C | 11.2 µM (active)
CCOC(=O)CNc1c(-c2ccccc2)nc2ccc(Cl)cn12 | 2.82 µM (active)

Lookup: Reported AC50 for Cytochrome P450 2C9 (Homo sapiens) (UniProt P11712), given `O=c1c(Cl)c(N2CCN(S(=O)(=O)c3ccc(F)cc3)CC2)cnn1-c1cccc(Cl)c1` ?
Found: inactive

Lookup: I'm curious: which AC50 was measured for `COc1ccc(NC(=O)N2CC3(CCN(C(=O)c4c(C)noc4C)CC3)C2)cc1` tested on Cytochrome P450 2C9 (Homo sapiens) (UniProt P11712)?
Found: inactive

Lookup: Test system Cytochrome P450 2C9 (Homo sapiens) (UniProt P11712); read-out AC50; what value for `Cc1nn(Cc2ccc([N+](=O)[O-])cc2)c(=O)n1-c1cccc(F)c1` ?
Found: inactive

Lookup: Form: Entry = `CCNCCCNCCCNCCCNCC` | System = Cytochrome P450 2C9 (Homo sapiens) (UniProt P11712) | AC50 = ____
Found: inactive

Lookup: AC50 of `Cc1cc(C)c(Cn2cnc(-c3ccc([N+](=O)[O-])cc3)c2)c(C)c1` on Cytochrome P450 2C9 (Homo sapiens) (UniProt P11712)?
Found: 12.6 µM (active)

Lookup: Item: `Cc1ccc(CS(=O)(=O)CCC(=O)NCCN2CCCC2)cc1` Test system: Cytochrome P450 2C9 (Homo sapiens) (UniProt P11712) Read-out: AC50 Value: ?
Found: inactive

Lookup: API: value(readout= AC50, system= Cytochrome P450 2C9 (Homo sapiens) (UniProt P11712), query= `COc1ccc(N(CC(=O)NCc2cccc(OC)c2)S(=O)(=O)c2c(C)noc2C)cc1` )
Found: 7.94 µM (active)

Lookup: Can you look up AC50 on Cytochrome P450 2C9 (Homo sapiens) (UniProt P11712) for CSc1nc2n(n1)C(c1cc(Br)ccc1F)C(C(=O)N(C)C)=C(C)N2 (configuration not stated) ?
Found: 22.4 µM (active)

---

# subjectOfTest: Cytochrome P450 2C9 (Homo sapiens) (UniProt P11712)
# experimentNotes: Cytochrome panel assay with activity outcomes
# measurementConditions: recombinant CYP, pro-luciferin dealkylation, luminescence, p450-cyp2c9; series mostly up to 57.1 µM
Hit rate of the full screen: of about 16,000 compounds, about 4,000 (25%) were called active. Inconclusive results (about 26%) are left out. The call rests on the fitted dose curve; in most records, active means well fitted curve in the direction sought with a large enough effect; inconclusive means small, poorly fitted or top-dose-only effect, or effect the other way; inactive means no such curve, though single readings can be large or run the other way. The list is a sample of the results.
Choose the fitting class; nothing outside active, inactive is accepted.

compound | subjectOfTest | categoryLabel
CCN1CCCC1CNC(=O)CSCc1nc(-c2ccccc2C)oc1C (stereo not given) | Cytochrome P450 2C9 (Homo sapiens) (UniProt P11712) | inactive
FC(F)(F)c1ccc(N2CCN(c3cc(-c4ccccc4)nc4ncnn34)CC2)nc1 | Cytochrome P450 2C9 (Homo sapiens) (UniProt P11712) | active
Nc1nc(Cl)nc2c1ncn2[C@@H]1O[C@@H](COP(=O)(O)OP(=O)(O)OP(=O)(O)O)[C@@H](O)[C@H]1O | Cytochrome P450 2C9 (Homo sapiens) (UniProt P11712) | inactive

Lookup: Recorded call for `CS(=O)(=O)c1nc(-c2ccccc2)cc(-c2ccccc2)c1C#N` ?
Found: active

Lookup: Test call, this compound: COc1cc(OC)cc(C(=O)NCC(=O)OC2CCOC2=O)c1 (stereo not given)
Found: inactive

Lookup: I would be grateful if you could indicate the recorded call for `COc1ccc(C(=O)N2CCC3(CCCN(Cc4ccccc4OC)C3)CC2)cc1` .
Found: inactive

Lookup: Per the assay record, what outcome was assigned to `CN(C)CCn1c(C(=O)O)cc2ccccc21` ?
Found: inactive

Lookup: # outcome recorded in this test, key = `O=c1ccc(NS(=O)(=O)c2ccccc2)cn1Cc1ccc(Cl)c(Cl)c1`
Found: active

Lookup: Any idea what this test logged for `CCn1c(C)cc(/C=C2\NC(=O)N(Cc3ccc(Cl)cc3)C2=O)c1C` ?
Found: inactive

Lookup: # lookup: test call for c1ccc(CN2c3ccccc3-c3nc4ccccc4n3C2c2ccccn2)cc1 (stereo not given)
Found: active

Lookup: Given `CC(C)(C)c1cc(C(=O)O)c(CN2CCCCC2)o1` , state the outcome it received in this test.
Found: inactive

---

# subjectOfTest: Cytochrome P450 2C9 (Homo sapiens) (UniProt P11712)
# experimentNotes: Cytochrome panel assay with activity outcomes
# measurementConditions: recombinant CYP, pro-luciferin dealkylation, luminescence, p450-cyp2c9; series mostly up to 57.1 µM
In all, about 16,000 compounds went through this assay and about 4,000 (25%) were called active. Roughly 26% stayed inconclusive and do not appear here. Calls come from the whole dose curve; as a rule, active = well fitted curve in the direction sought with a large enough effect; inconclusive = small, poorly fitted or top-dose-only effect, or effect the other way; inactive = no such curve, though single readings can be large or run the other way. The list is a sample of the results.
Outcomes you can answer with include only these: yes = active, no = inactive

Take a look at these entries with their results.
molecule | categoryLabel
COc1cc2c(cc1OC)[C@H](c1ccccc1)CN(C)CC2 | no
OCCNc1nc(SCc2ccccc2)nc2sc3c(c12)CCC3 | yes
CC(CO)Nc1nc(SCc2ccccc2)nc2sc3c(c12)CCC3 (stereo unspecified) | yes
CSc1nsc(SCc2ccc(Cl)cc2)n1 | yes
Cc1ccccc1C(=O)c1c[nH]c(C(=O)NCC2CCCO2)c1 (stereo unspecified) | no

Lookup: Assay outcome for `COc1cc2c(cc1OC)CN(C(=S)Nc1ccccc1)CC2` : what was it?
Found: yes

---

# subjectOfTest: Cytochrome P450 2C9 (Homo sapiens)
# experimentNotes: Cytochrome panel assay with activity outcomes
# measurementConditions: recombinant CYP, pro-luciferin dealkylation, luminescence, p450-cyp2c9; series mostly up to 57.1 µM
Out of some 16,000 compounds screened, about 4,000 (25%) were called active. Another 26% or so got no clear call; they are omitted. Not all results are given here.
assayReadout: AC50

Sample records with AC50:
compound | result
Oc1cc2c(cc1O)[C@H](c1ccccc1)CNCC2 | inactive
CN(C)S(=O)(=O)c1ccc(NC(=O)COC(=O)c2ccccn2)cc1 | 10 µM (active)
Cc1ccc(S(=O)(=O)N(C)CC(=O)O/N=C(\N)c2ccccn2)cc1 | inactive
CC(C)NC(=O)c1ccc2c(=O)n(Cc3ccco3)c(=S)[nH]c2c1 | inactive
Cc1cccc(N/C(=N\S(=O)(=O)c2ccccc2)C(F)(F)F)c1 | 2.51 µM (active)
Cc1ccc(S(N)(=O)=O)cc1NC(=O)/C=C/c1cccs1 | inactive
Cn1cc(/C=N/n2cnc3scc(-c4ccccc4)c3c2=O)c2ccccc21 | 5.01 µM (active)
COc1ccccc1CN1CCCC2(CCN(S(C)(=O)=O)CC2)C1 | inactive

Lookup: Notebook entry, Cytochrome P450 2C9 (Homo sapiens) assay: AC50 of `Nc1nc2c(c(=O)[nH]1)N(C=O)[C@H](CNc1ccc(C(=O)N[C@@H](CCC(=O)O)C(=O)O)cc1)CN2` = ?
Found: inactive

Lookup: Give recorded AC50 with Cytochrome P450 2C9 (Homo sapiens) for the following compound: `CC(C)COc1ccc(C(=O)Nc2scc(-c3ccc(Cl)cc3Cl)c2C(N)=O)cc1`
Found: 1.78 µM (active)

Lookup: Given the entry `CCN(CC)S(=O)(=O)c1ccc(NC(=O)COC(=O)c2ccc(Br)o2)cc1` , what AC50 was observed with Cytochrome P450 2C9 (Homo sapiens)?
Found: 8.91 µM (active)

Lookup: What value of AC50 on Cytochrome P450 2C9 (Homo sapiens) does CC(CC(=O)O)CC(=O)Nc1ccc(S(N)(=O)=O)cc1 (stereo unspecified) have?
Found: inactive

Lookup: Please tell me: AC50 of `CN(C)S(=O)(=O)c1cccc(NC(=O)COC(=O)c2ccc(Br)o2)c1` , system Cytochrome P450 2C9 (Homo sapiens)?
Found: 6.31 µM (active)

Lookup: Entry `Cc1ccc(S(=O)(=O)N2CCOCC2)cc1NC(=O)COC(=O)CCC(=O)c1cccs1` , system Cytochrome P450 2C9 (Homo sapiens): what AC50 was measured?
Found: 14.1 µM (active)

Lookup: Request: AC50, test system Cytochrome P450 2C9 (Homo sapiens), entry `COc1ccc(C(=O)Nc2scc(-c3ccc(Cl)cc3Cl)c2C(N)=O)cc1`
Found: 0.631 µM (active)

Lookup: Write down the reported AC50 of `C[C@H](O)C(=O)C1=Nc2c(nc(N)[nH]c2=O)NC1` , test system: Cytochrome P450 2C9 (Homo sapiens).
Found: inactive

Lookup: Could you share what AC50 was measured for `COc1ccc(CCNC(=O)c2ccc3c(=O)n(Cc4ccco4)c(=S)[nH]c3c2)cc1OC` , tested on Cytochrome P450 2C9 (Homo sapiens)?
Found: 4.47 µM (active)

Lookup: // fetch Cytochrome P450 2C9 (Homo sapiens) AC50 for `O=C(Nc1nnc(COc2ccc(Cl)cc2)s1)c1ccc([N+](=O)[O-])cc1`
Found: inactive

Lookup: Param readout= AC50; system= Cytochrome P450 2C9 (Homo sapiens); entry= COc1ccc(C2/C(=C(/O)c3ccc4c(c3)CC(C)O4)C(=O)C(=O)N2CCN2CCOCC2)cc1 (stereo unspecified) ; returns value.
Found: inactive

Lookup: // fetch Cytochrome P450 2C9 (Homo sapiens) AC50 for `NC(=O)OC[C@H](O)COc1ccc(Cl)cc1`
Found: inactive

Lookup: Query for Cytochrome P450 2C9 (Homo sapiens): what AC50 does the record show for `COc1ccc2c(c1)C(=NN)c1cc(OC)ccc1-2` ?
Found: 3.55 µM (active)
